- PROCEDURE TEXT: in vitro
- COND: human, hela cells, % viability
PROPERTY MEASURED: viability at 28.5 h, 10 µM
Give me the value, and tack the unit on after it.

Give viability at 28.5 h, 10 µM for the following molecule: `c1coc(CNc2c(-c3cccs3)nc3cnccn23)c1`
93.2%

Give viability at 28.5 h, 10 µM for the following molecule: `CCNC(=O)NC[C@H]1C[C@@H]2CCN1C[C@@H]2c1cc(C2CCCC2)nc(C)n1`
81.6%

Give viability at 28.5 h, 10 µM for the following molecule: CC(C)(C)c1cc(C(c2ccccc2O)N2CCOCC2)cc(C(C)(C)C)c1O (centres unmarked)
86.4%

Give viability at 28.5 h, 10 µM for the following molecule: `O=C(c1ccco1)N1CCN(c2cc(-c3ccccc3Oc3ccccc3)ncn2)CC1`
96.8%

Give viability at 28.5 h, 10 µM for the following molecule: `CC(C)c1nccn1CCCn1cncc1-c1cnn(C)c1`
104%

====

- PROCEDURE TEXT: in vitro
- COND: human, hela cells, % viability
PROPERTY MEASURED: viability at 28.5 h, 10 µM (%)
Quick reminder: number only, in %, skip the unit.

For orientation, consider the following solved cases.
Give viability at 28.5 h, 10 µM for the following compound: CC(=O)Nc1ccc(NC(=O)CCn2c(-c3cccc(C)c3)n[nH]c2=S)cc1Cl [CBK296656]
99.3

Give viability at 28.5 h, 10 µM for the following compound: CS(=O)(=O)c1ccc(-c2c[nH]c([C@@H]3COCCN3C3CCCCC3)n2)cc1 [CBK289299]
102

Give viability at 28.5 h, 10 µM for the following compound: O=C(O)c1nccnc1C(=O)N1CCN(c2ccc(Cl)cc2)CC1 [CBK286826]
89.4

Give viability at 28.5 h, 10 µM for the following compound: CCOC(=O)CN1CCN(S(=O)(=O)c2ccc(F)c(F)c2F)CC1 [CBK044345]
92.4

Give viability at 28.5 h, 10 µM for the following compound: Nc1ncc(-c2cc(C(F)(F)F)cc(C(F)(F)F)c2)nc1N1CCN(CCO)CC1 [CBK063426]
103

Others:
Give viability at 28.5 h, 10 µM for the following compound: COc1cccc(OC)c1OCCN1CCC(CNC(=O)Nc2cccc(C(F)(F)F)c2)CC1 [CBK051512T]
96.7

Give viability at 28.5 h, 10 µM for the following compound: NC(=O)C[N+]1(CC#CC(O)(c2ccccc2)c2ccccc2)CCCC1 [CBK262703I]
95.3

Give viability at 28.5 h, 10 µM for the following compound: O=C(Nn1cnnc1)c1ccccc1CCc1ccccc1 [CBK268578]
87.7

====

The following compounds are shown together with reported viability at 28.5 h, 10 µM values.
- PROCEDURE TEXT: in vitro
- COND: human, hela cells, % viability
Quick reminder: number only, in %, skip the unit.

For orientation, consider the following solved cases.
Give viability at 28.5 h, 10 µM for the following compound: `Sc1nnc(COc2ccc(-c3ccccc3)cc2)n1-c1ccccc1`
105

Give viability at 28.5 h, 10 µM for the following compound: `COc1ccccc1C(=O)N1CCC[C@@H](N)[C@@H]1c1ccccc1F`
86

Give viability at 28.5 h, 10 µM for the following compound: `CN1CCN(C(=O)c2ccc(-c3ccoc3)nc2)CC1`
100

Give viability at 28.5 h, 10 µM for the following compound: NC(=O)CN1CCC(Oc2nccnc2OCC2COc3ccccc3O2)CC1 (stereo not shown) [CBK082987T]
92.1

Give viability at 28.5 h, 10 µM for the following compound: Cc1cccc(C)c1NC(=O)c1c(NC(=O)c2ccco2)sc2c1CCC(C)C2 (stereo not shown)
107

Others:
Give viability at 28.5 h, 10 µM for the following compound: `CCn1cc(C(=O)O)c(=O)c2cnc(N3CCN(C(=S)NC(=O)c4c(-c5ccccc5)noc4C)CC3)nc21`
85

Give viability at 28.5 h, 10 µM for the following compound: `COc1cccc(-c2noc(C3CCN(CCc4ccc(F)cc4)CC3)n2)c1`
121

Give viability at 28.5 h, 10 µM for the following compound: `Cc1csc(NC(=O)CN2CC=C(c3ccc(C)o3)CC2)n1`
96.5

Give viability at 28.5 h, 10 µM for the following compound: `CCNC(=O)c1cc2c(=O)n3cc(C)ccc3nc2n(Cc2ccco2)c1=N`
85.8

Give viability at 28.5 h, 10 µM for the following compound: `Cc1ccccc1NC(=O)COc1ccc(S(=O)(=O)N2CCCC2)cc1Cl`
95.2

Give viability at 28.5 h, 10 µM for the following compound: Cc1ccc(S(=O)(=O)N2CCSC2C(=O)O)cc1 (stereo not shown)
86.8

Give viability at 28.5 h, 10 µM for the following compound: `CN(Cc1ccc(-c2ccc(CO)cc2)nc1)C1CCN(C(=O)OC(C)(C)C)CC1`
81.3

Give viability at 28.5 h, 10 µM for the following compound: `O=C(NCc1ccccc1)C1(c2ccccc2)CCCC1`
111

Taken from paper PMC12040169.
